Record form. Attribute: folding stability dG. Fill in for each entry.
B1: r16_88_TrROS_Hall (parent)
chain: EVIELKIKFKTPEQREKLKEIAKKLNAEVVEEKDGEVIIRFKTPEQAERALKEAEKLGAEVEL

Variants of: B1
PROCEDURE_DETAILS: folding stability dG (cDNA display proteolysis); higher = more stable
CONDITIONS: PBS, room temperature
Write the number in kcal/mol without appending the unit.

Looking up R40Q , I found its folding stability dG recorded as 4.07

Looking up Q46T , I found its folding stability dG recorded as 4.25

Looking up A47T , I found its folding stability dG recorded as 4.34

Looking up E32R , I found its folding stability dG recorded as 4.3

Looking up I38K , I found its folding stability dG recorded as 3.82

Looking up E48Q , I found its folding stability dG recorded as 4.37

Looking up E4P , I found its folding stability dG recorded as 4.4

Looking up K52Y , I found its folding stability dG recorded as 4.67

Looking up L51R , I found its folding stability dG recorded as 4.61

Looking up V37M , I found its folding stability dG recorded as 4.33

Looking up V29P , I found its folding stability dG recorded as 4.1

Looking up Q14N , I found its folding stability dG recorded as 4.47

Looking up Q14S , I found its folding stability dG recorded as 4.19

Looking up I38N , I found its folding stability dG recorded as 4.24

Looking up R49G , I found its folding stability dG recorded as 4.37

Looking up P44R , I found its folding stability dG recorded as 4.18

Looking up K33G , I found its folding stability dG recorded as 4.36

Looking up T11I , I found its folding stability dG recorded as 4.59

Looking up V61S , I found its folding stability dG recorded as 3.93

Looking up K10N , I found its folding stability dG recorded as 4.22

Looking up Q46I , I found its folding stability dG recorded as 4.15

Looking up E48P , I found its folding stability dG recorded as 3.89

Looking up I7L , I found its folding stability dG recorded as 4.64

Looking up A27S , I found its folding stability dG recorded as 4.31

Looking up E16G , I found its folding stability dG recorded as 4.52

Looking up P44S , I found its folding stability dG recorded as 4.49

Looking up I39P , I found its folding stability dG recorded as 0.941

Looking up K10D , I found its folding stability dG recorded as 4.11

Looking up K33T , I found its folding stability dG recorded as 4.35

Looking up K52W , I found its folding stability dG recorded as 4.43

Looking up A27Y , I found its folding stability dG recorded as 4.25

Looking up E45T , I found its folding stability dG recorded as 4.61

Looking up I39M , I found its folding stability dG recorded as 4.65

Looking up I39K , I found its folding stability dG recorded as 1.68

Looking up F9K , I found its folding stability dG recorded as 2.75

Looking up E32V , I found its folding stability dG recorded as 4.54

Looking up A59I , I found its folding stability dG recorded as 4.01

Looking up K33C , I found its folding stability dG recorded as 4.42

Looking up E4I , I found its folding stability dG recorded as 4.54

Looking up K52E , I found its folding stability dG recorded as 4.07

Looking up K42D , I found its folding stability dG recorded as 4.01

Looking up E60D , I found its folding stability dG recorded as 4.24

Looking up V29R , I found its folding stability dG recorded as 4.57

Looking up E48V , I found its folding stability dG recorded as 4.17

Looking up L5D , I found its folding stability dG recorded as 2

Looking up E48L , I found its folding stability dG recorded as 4.29

Looking up L51M , I found its folding stability dG recorded as 4.4

Looking up E53K , I found its folding stability dG recorded as 4.02

Looking up V61M , I found its folding stability dG recorded as 3.99

Looking up K56V , I found its folding stability dG recorded as 4.45

Looking up T43Y , I found its folding stability dG recorded as 4.43

Looking up E62I , I found its folding stability dG recorded as 4.35

Looking up R15W , I found its folding stability dG recorded as 4.66

Looking up P44V , I found its folding stability dG recorded as 4.35

Looking up K6G , I found its folding stability dG recorded as 4.02

Looking up K8T , I found its folding stability dG recorded as 4.33

Looking up E20P , I found its folding stability dG recorded as 3.68

Looking up I7G , I found its folding stability dG recorded as 4.36

Looking up E13V , I found its folding stability dG recorded as 4.37

Looking up E1M , I found its folding stability dG recorded as 4.3

Looking up E20D , I found its folding stability dG recorded as 4.26

Looking up G35K , I found its folding stability dG recorded as 4.24
